Can you tell me pIC50 for the items I'm about to list?
# Test system: HT-29
# Procedure text: cells
# Condition info: Homo sapiens, HT-29, 72 h
Answers are plain numbers, as −log10 of the molar value.

Could you report pIC50 for every entry in the following list?
1. COc1cc2c(Oc3ccc(NC(=O)N/N=C/c4ccc[nH]4)cc3F)ccnc2cc1OCCCN1CCCCC1
2. COc1cc2c(Oc3ccc(NC(=O)N/N=C/c4ccc(F)cc4)cc3F)ccnc2cc1OCCCN1CCOCC1
3. COc1cc2c(Oc3ccc(NC(=O)N/N=C/c4ccc([N+](=O)[O-])cc4)cc3F)ccnc2cc1OCCCN1CCCCC1
4. COc1cc2c(Oc3ccc(NC(=O)N/N=C/c4ccccc4F)cc3F)ccnc2cc1OCCCN1CCCCC1

[6.36, 7.02, 6.43, 6.66]
